tested on: NUGC-3_P53_Luc single clonal cell line (p53 Y220C); assay: Reporter gene assay (p53 RE luciferase); assay type: cell-based; conditions: luciferase reporter, 6 hours, normalized to Ref-1a (10 μM) high control; read-out: p53(Y220C)_NUGC-3 EC50
pEC50: −log10 of the molar value.
RECORDED_METRIC: pEC50

1) COc1cc(P(C)(C)=O)ccc1NCC#Cc1sc2c(NC3CCN(C)CC3F)cccc2c1CC(F)(F)F (stereo not drawn)
6.51
2) CNC(=O)c1cc(OC)c(NCC#Cc2sc3c(NC4CCN(C)CC4F)cccc3c2CC(F)(F)F)cn1 (stereo not drawn)
6.33
3) COc1cc(P(C)(C)=O)c(F)cc1NCC#Cc1sc2c(NC3CCN(C)CC3F)cccc2c1CC(F)(F)F (stereo not drawn)
6.64
4) COc1cc([S@](C)(=N)=O)ccc1NCC#Cc1sc2c(N[C@@H]3CCN(C)C[C@@H]3F)cccc2c1CC(F)(F)F
7.40
5) COc1cc(P(C)(C)=O)ccc1NCC#Cc1sc2c(NC3C(C)CN(C)CC3C)cccc2c1CC(F)(F)F (stereo not drawn)
6.59
6) CN1CCC(Nc2cccc3c(CC(F)(F)F)c(C#CCNc4ccc(P(C)(C)=O)cc4OC(F)F)sc23)C(F)C1 (stereo not drawn)
6.82
7) COc1cc([S@@](C)(=N)=O)ccc1NCC#Cc1sc2c(N[C@@H]3CCN(C)C[C@@H]3F)cccc2c1CC(F)(F)F
7.30
8) CN1CCC(Nc2cccc3c(CC(F)(F)F)c(C#CCNc4ccc(P(C)(C)=O)cc4OCF)sc23)C(F)C1 (stereo not drawn)
6.64
9) CN1CCC(Nc2cccc3c(CC(F)(F)F)c(C#CCNc4ccc(P(C)(C)=O)c5c4OCC5)sc23)C(F)C1 (stereo not drawn)
6.92
10) CNC(=O)c1ccc(NCC#Cc2sc3c(NC4CCN(C)CC4F)cccc3c2CC(F)(F)F)c(OC)n1 (stereo not drawn)
6.47
11) COc1cc(C(N)=O)ncc1NCC#Cc1sc2c(NC3CCN(C)CC3F)cccc2c1CC(F)(F)F (stereo not drawn)
6.28
12) CN1CCC(Nc2cccc3c(CC(F)(F)F)c(C#CCNc4ccc(P(C)(C)=O)cc4OC(F)(F)F)sc23)C(F)C1 (stereo not drawn)
6.92
13) COCC(O)CNC(=O)c1ccc(NCC#Cc2sc3c(NC4CCN(C)CC4F)cccc3c2CC(F)(F)F)c(OC)c1 (stereo not drawn)
6.82
14) COc1cc(C(=O)NC2CCN(C)CC2F)ccc1NCC#Cc1sc2c(NC3CCN(C)CC3F)cccc2c1CC(F)(F)F (stereo not drawn)
6.19
15) COc1cc(C(N)=O)ccc1NCC#Cc1sc2c(NC3CCN(C)CC3F)cccc2c1CC(F)(F)F (stereo not drawn)
6.77

* * *

molecular target: His-p53 Y220C (94-294) protein (Homo sapiens, UniProt P04637, Y220C); construct: His-p53 Y220C (94-294) protein; test: In vitro DNA binding assay (HTRF); conditions: % activation normalized to 2 μM Ref-1a high control
pEC50: −log10 of the molar value.
# label = true (1) if pEC50 >= 7 else false (0)

1) COc1cc(NCC#Cc2sc3c(NC4CCN(C)CC4F)cccc3c2CC(F)(F)F)ccc1P(C)(C)=O (stereo not shown)
true (1)
2) COc1cc(P(C)(C)=O)ccc1NCC#Cc1sc2c(N[C@@H]3CCN(C4CC5CCC(C4)O5)C[C@@H]3F)cccc2c1CC(F)(F)F (stereo partly shown)
true (1)
3) COc1cc(S(C)(=O)=O)ccc1NCC#Cc1sc2c(NCC3CCN(C)CC3)cccc2c1CC(F)(F)F
false (0)
